Give measured ELISA coated for each item. Keep answers brief.
# studyTarget: T1, recombinant His6-tagged extracellular domain of human Clec4C (C-type lectin domain family 4, member C) (human, UniProt Q8WTT0 44-213)
# T1 construct: Same antigen for immunisation, panning and ELISA; also called His-Clec4C(EC); pMET7-SIgK-His-Clec4C(EC)
# T1 sequence: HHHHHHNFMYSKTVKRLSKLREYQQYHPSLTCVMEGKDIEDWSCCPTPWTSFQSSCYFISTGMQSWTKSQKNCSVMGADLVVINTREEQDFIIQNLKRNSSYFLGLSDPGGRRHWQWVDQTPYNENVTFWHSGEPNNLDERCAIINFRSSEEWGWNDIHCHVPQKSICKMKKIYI
# measurementProtocol: ELISA, TG1 periplasmic extract on coated antigen
// keep it numeric: no unit symbol after the value

Value lookup for ELISA coated; key = 1CL56 (VHH, pMECS VHH-HA-His6; TG1 periplasmic extract) VHH: QVQLQESGGGLVQPGGSLTLSCGASGFDFSDYVMYWLRQAPGKGLQWVSSINASGVRTYYVDALKGRFTISRDNAKNTLYLQIDDLKPEDTGLYYCARVGQAPMYFGVDFWGNGTQVTVSS 3.89

Value lookup for ELISA coated; key = 1CL25 (VHH, pMECS VHH-HA-His6; TG1 periplasmic extract) VHH: QVQLQESGGGLVQPGGSLRLSCAASGSTFRHHAMAWFRQTPGKEREFVSAINDHGDRTKYLDSVRGRFTISRDNTDNMVYLLMSDLRPEDTAVYSCAAGPLVDYLETTPLVYTYWGQGTQVTVSS 4

Value lookup for ELISA coated; key = 2CL18 (VHH, pMECS VHH-HA-His6; TG1 periplasmic extract) VHH: QVQLQESGGGLVQAGGSLRLSCAPSGFTFDGYAIGWFRQAPGKEREKVACINKSDGLTYYEDSVKGRFTISSDTAKNTIHLQMNSLKPDDTAVYYCAAAWECDYAPADFGSWGQGTQVTVSS 0.491

Value lookup for ELISA coated; key = 2CL4 (VHH, pMECS VHH-HA-His6; TG1 periplasmic extract) VHH: QVQLQESGGGLVQPGGSLRISCAGSGSTFRHHAMAWFRQTAGKEREFVSAINDHGTKTRYSDSVRGRFTISRDNDENMVYLQMDNLRSEDTANYTCAAGPLVDYLETVPVVYTYWGQGTQVTVSS 2.8
